biological target: HCV Core 134-171-TT peptide (ALRZ-9 peptide) (HCV-1); assay: SPR, captured mAb;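 note: Anti-HCV Core mAbs from hybridoma supernatants held on a rabbit anti-mouse IgG CM5 surface, peptide flowed over 3 min then 4 min dissociation, duplicate concentrations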
Measured Metric: kon (M⁻¹ s⁻¹)
# value in M⁻¹ s⁻¹; strip the unit string

For this binder ( HCV 208A-741 (antibody, V domains shown) VH: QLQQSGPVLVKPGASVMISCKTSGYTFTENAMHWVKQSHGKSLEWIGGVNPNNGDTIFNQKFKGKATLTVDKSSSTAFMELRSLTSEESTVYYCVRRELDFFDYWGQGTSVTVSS VL: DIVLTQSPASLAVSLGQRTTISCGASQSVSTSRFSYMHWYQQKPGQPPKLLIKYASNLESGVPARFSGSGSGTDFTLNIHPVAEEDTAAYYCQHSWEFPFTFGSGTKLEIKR ), measured kon is 1.7e+06
